meta.source: the supplement of paper PMC13207355

Test system: E31 (patient-derived glioblastoma stem cells of proneural subtype)
Measurement Protocol: phenotypic distance (Euclidean, principal components) from DMSO controls (arbitrary units); higher = stronger morphological change
Experimental Conditions: 37 nM; exposure time: 72 h
Structures can show the parent of a compound that is named as a salt.
Note: every record was labeled by where its phenotypic distance sits among bin 0 = under 0.6, bin 1 = from 0.6 up to 0.9, bin 2 = 0.9 and over

Molecule: O=C1CCc2cc(OCCCCc3nnnn3C3CCCCC3)ccc2N1 [Cilostazol]
Tested Target: E31
Assigned Category: bin 1

Molecule: OCCN1CCN(CCCN2c3ccccc3Sc3ccc(C(F)(F)F)cc32)CC1 [Fluphenazine dihydrochloride]
Tested Target: E31
Assigned Category: bin 1

Molecule: COc1cc2c(cc1-c1c(C)noc1C)ncc1[nH]c(=O)n([C@H](C)c3ccccn3)c12
Tested Target: E31;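 note: cell Painting imaging in 384-well plates, CellProfiler features reduced to at least 20 principal components, Euclidean distance versus same-plate DMSO vehicle wells (0.1% v/v), median over six images per well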
Assigned Category: bin 0

# bin lookup: classify CC(NCCC(c1ccccc1)c1ccccc1)c1ccccc1 (stereo not given) [Fendiline hydrochloride] by its phenotypic distance
bin 0

# bin lookup: classify C=CC(=O)Nc1cc(Nc2nccc(-c3cn(C)c4ccccc34)n2)c(OC)cc1N(C)CCN(C)C [Osimertinib mesylate] by its phenotypic distance
bin 2

# bin lookup: classify CC(C)NCC(O)c1ccc(O)c(O)c1 (stereo not given) [Isoproterenol hydrochloride] by its phenotypic distance
bin 1

# bin lookup: classify COc1nc(C)nc(Cl)c1NC1=NCCN1 [Moxonidine] by its phenotypic distance
bin 1

# bin lookup: classify O=C(Nc1ccc([N+](=O)[O-])cc1Cl)c1cc(Cl)ccc1O [Niclosamide] by its phenotypic distance
bin 2

# bin lookup: classify c1ccc2c(c1)[I+]c1ccccc1-2 [Diphenyleneiodonium chloride] by its phenotypic distance
bin 2
